molecular target: XIAP BIR3 (Homo sapiens); test: Fluorescence polarization (FP) based competitive binding assay to XIAP BIR3; settings: FP binding, XIAP BIR3 30 nM, SM5F 5 nM

>  <compound>
CN[C@@H](C)C(=O)N[C@H]1CN(C(=O)CC(C)C)CC[C@H]2CC[C@@H](C(=O)NCc3ccccc3-c3ccccc3)N2C1=O

>  <experimentalTarget>
XIAP BIR3 (Homo sapiens)

>  <IC50>
< 1000 nM

$$$$
>  <compound>
CN[C@@H](C)C(=O)N[C@H]1CN(C(=O)CC(C)C)CC[C@H]2CC[C@@H](C(=O)NCc3ccc(C(F)(F)F)cc3)N2C1=O

>  <experimentalTarget>
XIAP BIR3 (Homo sapiens)

>  <IC50>
< 10000 nM

$$$$
>  <compound>
CN[C@@H](C)C(=O)N[C@H]1CN(C(=O)Cc2ccc(F)cc2)CC[C@H]2CCC(C(=O)NC(c3ccccc3)c3ccccc3)N2C1=O (stereo partly drawn)

>  <experimentalTarget>
XIAP BIR3 (Homo sapiens)

>  <IC50>
< 1000 nM

$$$$

###

molecular target: XIAP BIR3 (Homo sapiens, UniProt P98170); assay: Fluorescence polarization (FP) based competitive binding assay to XIAP BIR3; conditions: FP binding, XIAP BIR3 30 nM, SM5F 5 nM
Sequence (P98170 241-356): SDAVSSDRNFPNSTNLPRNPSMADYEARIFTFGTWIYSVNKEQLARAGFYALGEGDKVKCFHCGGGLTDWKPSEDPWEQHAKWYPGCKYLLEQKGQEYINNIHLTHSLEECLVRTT
pIC50: −log10 of the molar value.
# reported pIC50; entries follow
reportedMetric: pIC50

>  <compound>
CN[C@@H](C)C(=O)N[C@H]1CN(C(=O)CC(C)C)CC[C@H]2CC[C@@H](C(=O)NC3CCc4ccccc43)N2C1=O (stereo partly drawn)

>  <experimentalTarget>
XIAP BIR3 (Homo sapiens, UniProt P98170)

>  <observedValue>
> 6.00

$$$$
>  <compound>
CN[C@@H](C)C(=O)N[C@H]1CN(C(=O)Cc2ccccc2)CCC[C@H]2CC[C@@H](C(=O)NC(c3ccccc3)c3ccccc3)N2C1=O

>  <experimentalTarget>
XIAP BIR3 (Homo sapiens, UniProt P98170)

>  <observedValue>
> 6.00

$$$$
>  <compound>
CN[C@@H](C)C(=O)N[C@H]1CN(C(=O)Cc2ccccc2)CC[C@H]2CC[C@@H](C(=O)NC3CCCc4ccccc43)N2C1=O (stereo partly drawn)

>  <experimentalTarget>
XIAP BIR3 (Homo sapiens, UniProt P98170)

>  <observedValue>
> 7.00

$$$$
>  <compound>
CN[C@@H](C)C(=O)N[C@H]1CN(C(=O)CCC(C)C)CC[C@H]2CC[C@@H](C(=O)NC(c3ccccc3)c3ccccc3)N2C1=O

>  <experimentalTarget>
XIAP BIR3 (Homo sapiens, UniProt P98170)

>  <observedValue>
> 6.00

$$$$
>  <compound>
CN[C@@H](C)C(=O)N[C@H]1CN(C(=O)CC(C)C)CC[C@H]2CC[C@@H](C(=O)NCC(c3ccccc3)c3ccccc3)N2C1=O

>  <experimentalTarget>
XIAP BIR3 (Homo sapiens, UniProt P98170)

>  <observedValue>
> 6.00

$$$$
>  <compound>
CN[C@@H](C)C(=O)N[C@H]1CN(C(=O)CC(C)C)CC[C@H]2CC[C@@H](C(=O)N[C@H]3CCc4ccccc43)N2C1=O

>  <experimentalTarget>
XIAP BIR3 (Homo sapiens, UniProt P98170)

>  <observedValue>
> 6.00

$$$$

###

Below, each entry is listed alongside its reported IC50.
test system: SK-OV-3 ovarian cancer cell line; test: Cell growth inhibition, WST-8 assay, SK-OV-3; type: cell-based; settings: Homo sapiens, SK-OV-3, 96 h, 4 days, WST-8; read-out: SK-OV-3 IC50
reportedMetric: IC50

>  <smiles>
CN[C@@H](C)C(=O)N[C@H]1CN(C(=O)CC(C)C)CC[C@H]2CC[C@@H](C(=O)NC(c3ccc(F)cc3)c3ccc(F)cc3)N2C1=O

>  <reportedMetric>
IC50

>  <observedValue>
< 1 µM

$$$$
>  <smiles>
CN[C@@H](C)C(=O)N[C@H]1CN(C(=O)CC(C)C)CC[C@H]2CC[C@@H](C(=O)NCc3ccc(-c4ccccc4)cc3)N2C1=O

>  <reportedMetric>
IC50

>  <observedValue>
< 10 µM

$$$$
>  <smiles>
CC(C)CC(=O)N1CC[C@H]2CC[C@@H](C(=O)NC(c3ccccc3)c3ccccc3)N2C(=O)[C@@H](NC(=O)[C@H](C)NCCO)C1

>  <reportedMetric>
IC50

>  <observedValue>
< 10 µM

$$$$

###

system: SK-OV-3 ovarian cancer cell line; assay: Cell growth inhibition, WST-8 assay, SK-OV-3; assay type: cell-based; conditions: Homo sapiens, SK-OV-3, 96 h, 4 days, WST-8; read-out: SK-OV-3 IC50
pIC50: −log10 of the molar value.

>  <compound>
CN[C@@H](C)C(=O)N[C@H]1CN(C(=O)CC(C)C)CC[C@H]2CC[C@@H](CN(Cc3ccccc3)C(C)=O)N2C1=O

>  <pIC50>
> 4.00

$$$$
>  <compound>
CC[C@H](NC)C(=O)N[C@H]1CN(C(=O)CC(C)C)CC[C@H]2CC[C@@H](C(=O)NC(c3ccccc3)c3ccccc3)N2C1=O

>  <pIC50>
> 5.00

$$$$
>  <compound>
CN[C@@H](C)C(=O)N[C@H]1CN(C(=O)C[C@H]2CC[C@H](O)C2)CC[C@H]2CC[C@@H](C(=O)NC(c3ccccc3)c3ccccc3)N2C1=O

>  <pIC50>
> 5.00

$$$$
>  <compound>
CN[C@@H](C)C(=O)N[C@H]1CN(C(=O)Cc2ccccc2)CC[C@H]2CC[C@@H](C(=O)NC3CCCc4ccccc43)N2C1=O (stereo partly drawn)

>  <pIC50>
> 6.00

$$$$
>  <compound>
CN[C@@H](C)C(=O)N[C@H]1CN(C(=O)CCc2ccc(F)cc2)CC[C@H]2CC[C@@H](C(=O)NC(c3ccc(F)cc3)c3ccc(F)cc3)N2C1=O

>  <pIC50>
> 6.00

$$$$
>  <compound>
CCCN[C@@H](C)C(=O)N[C@H]1CN(C(=O)CC(C)C)CC[C@H]2CC[C@@H](C(=O)NC(c3ccccc3)c3ccccc3)N2C1=O

>  <pIC50>
> 5.00

$$$$

###

target: XIAP BIR3 (Homo sapiens); assay: Fluorescence polarization (FP) based competitive binding assay to XIAP BIR3; conditions: FP binding, XIAP BIR3 30 nM, SM5F 5 nM
Each item that follows carries a reported IC50.
reportedMetric: IC50

>  <molecule>
CN[C@@H](C)C(=O)N[C@H]1CN(C(=O)Cc2ccc(F)cc2F)CC[C@H]2CCC(C(=O)NC(c3ccccc3)c3ccccc3)N2C1=O (stereo partly drawn)

>  <observedValue>
< 1000 nM

$$$$
>  <molecule>
CN[C@@H](C)C(=O)N[C@H]1CN(C(=O)CCn2ccnc2)CC[C@H]2CC[C@@H](C(=O)NC(c3ccccc3)c3ccccc3)N2C1=O

>  <observedValue>
< 1000 nM

$$$$
>  <molecule>
CN[C@@H](C)C(=O)N[C@H]1CN(C(=O)CC(C)C)CC[C@H]2CC[C@@H](C(=O)NCc3ccc(-c4ccccc4)cc3)N2C1=O

>  <observedValue>
< 10000 nM

$$$$
>  <molecule>
CN[C@@H](C)C(=O)N[C@H]1CN(C(=O)CC(C)C)CC[C@H]2CC[C@@H](C(=O)NCc3cccc4ccccc34)N2C1=O

>  <observedValue>
< 1000 nM

$$$$
>  <molecule>
CN[C@@H](C)C(=O)N[C@H]1CN(C(=O)CC(C)C)CC[C@H]2CC[C@@H](C(=O)NCc3cccc(-c4ccccc4)c3)N2C1=O

>  <observedValue>
< 1000 nM

$$$$
>  <molecule>
CN[C@@H](C)C(=O)N[C@H]1CN(C(=O)CCc2ccc(F)cc2)CC[C@H]2CC[C@@H](C(=O)NC(c3ccccc3)c3ccccc3)N2C1=O

>  <observedValue>
< 1000 nM

$$$$

###

Some compounds, each annotated with its measured IC50.
target: XIAP BIR3 (Homo sapiens, UniProt P98170); assay: Fluorescence polarization (FP) based competitive binding assay to XIAP BIR3; conditions: FP binding, XIAP BIR3 30 nM, SM5F 5 nM

>  <smiles>
CCCN[C@@H](C)C(=O)N[C@H]1CN(C(=O)CC(C)C)CC[C@H]2CC[C@@H](C(=O)NC(c3ccccc3)c3ccccc3)N2C1=O

>  <IC50>
< 1000 nM

$$$$
>  <smiles>
CN[C@@H](C)C(=O)N[C@H]1CN(C(=O)CCCC(C)C)CC[C@H]2CC[C@@H](C(=O)NC(c3ccccc3)c3ccccc3)N2C1=O

>  <IC50>
< 1000 nM

$$$$
>  <smiles>
CN[C@@H](C)C(=O)N[C@H]1CN(C(=O)C[C@H]2CC[C@H](O)C2)CC[C@H]2CC[C@@H](C(=O)NC(c3ccccc3)c3ccccc3)N2C1=O

>  <IC50>
< 1000 nM

$$$$
>  <smiles>
CN[C@@H](C)C(=O)N[C@H]1CN(C(=O)CC(C)C)CC[C@H]2CC[C@@H](CN(Cc3ccccc3)C(C)=O)N2C1=O

>  <IC50>
< 10000 nM

$$$$
>  <smiles>
CN[C@@H](C)C(=O)N[C@H]1CN(C(=O)CCc2ccc(F)cc2)CC[C@H]2CC[C@@H](C(=O)NC(c3ccc(F)cc3)c3ccc(F)cc3)N2C1=O

>  <IC50>
< 1000 nM

$$$$
>  <smiles>
CN[C@@H](C)C(=O)N[C@H]1CN(C(=O)CC(C)C)CC[C@H]2CC[C@@H](C(=O)N[C@@H]3CCCc4ccccc43)N2C1=O

>  <IC50>
< 1000 nM

$$$$
>  <smiles>
CCCC(=O)N1CC[C@H]2CC[C@@H](C(=O)NC(c3ccccc3)c3ccccc3)N2C(=O)[C@@H](NC(=O)[C@H](C)NC)C1

>  <IC50>
< 1000 nM

$$$$
>  <smiles>
CC(C)CC(=O)N1CC[C@H]2CC[C@@H](C(=O)NC(c3ccccc3)c3ccccc3)N2C(=O)[C@@H](NC(=O)[C@H](C)NCCO)C1

>  <IC50>
< 1000 nM

$$$$
>  <smiles>
CN[C@@H](C)C(=O)N[C@H]1CN(C(=O)Cc2ccc(F)cc2)CC[C@H]2CC[C@@H](C(=O)NCc3ccc(F)cc3)N2C1=O

>  <IC50>
< 1000 nM

$$$$
>  <smiles>
CN[C@@H](C)C(=O)N[C@H]1CN(C(=O)C(C)C)CC[C@H]2CC[C@@H](C(=O)NC(c3ccc(F)cc3)c3ccc(F)cc3)N2C1=O

>  <IC50>
< 1000 nM

$$$$
>  <smiles>
CN[C@@H](C)C(=O)N[C@H]1CN(C(=O)CC(C)C)CC[C@H]2CC[C@@H](C(=O)NC(c3ccccc3)c3ccccc3)N2C1=O

>  <IC50>
< 100 nM

$$$$
>  <smiles>
CN[C@@H](C)C(=O)N[C@H]1CN(C(=O)Cc2ccccc2)CC[C@H]2CC[C@@H](C(=O)NCc3ccc(F)cc3)N2C1=O

>  <IC50>
< 1000 nM

$$$$
>  <smiles>
CC[C@H](NC)C(=O)N[C@H]1CN(C(=O)CC(C)C)CC[C@H]2CC[C@@H](C(=O)NC(c3ccccc3)c3ccccc3)N2C1=O

>  <IC50>
< 1000 nM

$$$$
